- experimental_system: cellular 5-lipoxygenase (Rattus norvegicus)
- Construct: ARBL/ARBC Whole Cell 5-Lipoxygenase and Cyclooxygenase Assays; host or cells: RBL-1 (rat basophilic leukemia) cells
- Sequence (P12527 1-673): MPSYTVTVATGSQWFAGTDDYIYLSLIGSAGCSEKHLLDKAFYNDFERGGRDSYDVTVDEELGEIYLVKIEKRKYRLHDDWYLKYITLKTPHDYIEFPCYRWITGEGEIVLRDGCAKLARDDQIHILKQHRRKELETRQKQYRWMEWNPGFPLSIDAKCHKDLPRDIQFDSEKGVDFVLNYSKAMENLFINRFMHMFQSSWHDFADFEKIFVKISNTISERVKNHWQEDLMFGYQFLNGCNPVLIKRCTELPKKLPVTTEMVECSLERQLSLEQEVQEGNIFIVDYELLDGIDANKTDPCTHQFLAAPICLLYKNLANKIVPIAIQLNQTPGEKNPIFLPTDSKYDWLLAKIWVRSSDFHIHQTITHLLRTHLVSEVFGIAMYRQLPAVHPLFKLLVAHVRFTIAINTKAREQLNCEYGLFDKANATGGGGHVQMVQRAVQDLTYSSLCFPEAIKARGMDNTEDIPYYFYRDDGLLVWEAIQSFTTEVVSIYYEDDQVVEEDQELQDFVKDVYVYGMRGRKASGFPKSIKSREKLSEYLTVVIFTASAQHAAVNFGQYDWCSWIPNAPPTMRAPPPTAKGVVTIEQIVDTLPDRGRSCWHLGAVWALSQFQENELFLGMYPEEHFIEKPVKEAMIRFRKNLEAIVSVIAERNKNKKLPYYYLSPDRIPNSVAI
- protocol_description: ARBL whole cell 5-lipoxygenase assay (LTB₄ formation in RBL-1 cells)
- Format: cell-based
- settings: A23187 stimulated, LTB₄ by RIA, read-out: ARBL Percent inhibition of cellular 5-lipoxygenase at 16 µM
measure: inhibition at 16 µM (%)

Illustrative cases are given below, each with its answer.
molecule | measure | quantitative_result
CC(C)(C)c1cc(C=C2OC(=S)NC2=O)cc(C(C)(C)C)c1O | inhibition at 16 µM | 92
CC(C)(C)c1cc(C=C2OC(=O)NC2=O)cc(C(C)(C)C)c1O | inhibition at 16 µM | 95

I: COc1cc(C=C2OC(=O)NC2=O)cc(OC)c1O
II: CC(C)(C)c1cc(C=C2SC(=O)NC2=O)cc(C(C)(C)C)c1O
Of I and II , which one carries the higher reported inhibition at 16 µM? Write down the label attached to your selection. II
(II: 100%, I: 67%)

* * *

- Test system: human basophils
- protocol_description: Histamine release from human basophils (HHB), anti-IgE challenge
- Type: cell-based
- settings: 33 µM drug; human basophils challenged with anti-IgE; 2-thioxo-4-oxazolidinone series
measure: inhibition at 33 µM (%)
Unit % implied. Number only.

Illustrative cases are given below, each with its answer.
molecule | experimental_system | measure | quantitative_result
COc1cc(C=C2OC(=S)NC2=O)ccc1O [Example 4] | human basophils | inhibition at 33 µM | 77
COc1cc(C=C2OC(=S)NC2=O)cc(OC)c1OC [Example 10] | human basophils | inhibition at 33 µM | 76

molecule COc1ccc(C=C2OC(=S)NC2=O)cc1OC [Example 5] , inhibition at 33 µM observed: 43

molecule COc1cc(C=C2OC(=S)NC2=O)cc(OC)c1O [Example 6] , inhibition at 33 µM observed: 89

molecule O=C1NC(=S)OC1=Cc1ccc(O)c(Br)c1 [Example 13] , inhibition at 33 µM observed: 66
